pKd: −log10 of the molar value.
Here we list compounds with their recorded pKd when tested on JAK2 (Homo sapiens).
Sequence (O60674 840-1132 limits assumed): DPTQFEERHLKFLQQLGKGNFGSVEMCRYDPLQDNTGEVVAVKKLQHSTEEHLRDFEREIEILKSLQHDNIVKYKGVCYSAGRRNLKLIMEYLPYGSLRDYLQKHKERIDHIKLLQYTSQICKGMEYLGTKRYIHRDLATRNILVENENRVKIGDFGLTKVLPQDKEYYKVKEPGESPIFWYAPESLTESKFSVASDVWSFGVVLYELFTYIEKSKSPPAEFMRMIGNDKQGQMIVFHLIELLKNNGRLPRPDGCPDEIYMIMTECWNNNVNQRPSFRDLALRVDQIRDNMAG

See these solved cases before continuing.
| Compound | Measured on | Value reported |
| --- | --- | --- |
| NC(=O)c1c(Nc2ccc(-c3ccccn3)cc2)n[nH]c1NCc1ccc(O)cc1 [reference compound] | JAK2 (Homo sapiens) | > 7.30 |
| COc1ccc(Nc2n[nH]c(NCc3cc(C)c(O)c(C)c3)c2C(N)=O)cc1 [drawing 180, reference compound] | JAK2 (Homo sapiens) | > 7.30 |

Here are 2 compounds. What values of pKd were reported for them?
1. NC(=O)c1c(Nc2ccc(N3CCCCC3)cn2)n[nH]c1NCc1ccc(O)cc1 [reference compound]
2. Cc1cc(Nc2n[nH]c(NCc3cc(C)c(O)c(C)c3)c2C(N)=O)ccc1N1CCCCC1 [Compound 30]

Response line:
> 7.30
< 6.00

Here are 8 compounds. What values of pKd were reported for them?
1. COc1cccc(C(=O)Nc2ccc(Nc3n[nH]c(NCc4ccc(O)cc4)c3C(N)=O)cc2)c1 [reference compound]
2. NC(=O)c1c(Nc2ccc(N3CCOCC3)nc2)n[nH]c1NCc1ccc(O)cc1 [reference compound]
3. CC(=O)Nc1cccc(Nc2n[nH]c(NCc3cc(C)c(O)c(C)c3)c2C(N)=O)c1 [Compound 40]
4. NC(=O)c1c(Nc2ccc(-n3cccc3)cc2)n[nH]c1NCc1ccc(O)cc1 [reference compound]
5. CC(=O)Nc1cccc(Nc2n[nH]c(NCc3ccc(O)cc3)c2C(N)=O)c1 [reference compound]
6. NC(=O)c1c(Nc2ccc(N3CCS(=O)(=O)CC3)cc2)n[nH]c1NCc1ccc(O)cc1 [reference compound]
7. NC(=O)c1c(Nc2ccc3[nH]ncc3c2)n[nH]c1NCc1ccc(O)cc1 [reference compound]
8. NC(=O)c1c(Nc2ccc(N3CCOCC3=O)cc2)n[nH]c1NCc1ccc(O)cc1 [reference compound]

Response line:
1: > 7.30; 2: > 7.30; 3: < 6.00; 4: > 7.30; 5: > 7.30; 6: > 7.30; 7: > 7.30; 8: > 7.30

Here are 8 compounds. What values of pKd were reported for them?
1. Cc1cc(Nc2n[nH]c(NCc3ccc(O)cc3)c2C(N)=O)ccc1N1CCN(C)CC1 [reference compound]
2. Cc1cc(CNc2[nH]nc(Nc3ccc(N4CCN(C(=O)N5CCOCC5)CC4)cc3)c2C(N)=O)cc(C)c1O [Compound 39]
3. NC(=O)c1c(Nc2ccc(N3CCN(c4ncccn4)CC3)cc2)n[nH]c1NCc1ccc(O)cc1 [reference compound]
4. Cc1cc(CNc2[nH]nc(Nc3ccc(N4CCOCC4)nc3)c2C(N)=O)cc(C)c1O [Compound 7]
5. Cc1cc(CNc2[nH]nc(Nc3cccc(Cl)c3)c2C(N)=O)cc(C)c1O [reference compound]
6. NC(=O)c1c(Nc2ccc(N3CCSCC3)cc2)n[nH]c1NCc1ccc(O)cc1 [reference compound]
7. NC(=O)c1c(Nc2ccc(-c3ccccc3)cc2)n[nH]c1NCc1ccc(O)cc1 [reference compound]
8. Cc1cc(CNc2[nH]nc(Nc3ccc(N4CCN(C)CC4)c(Cl)c3)c2C(N)=O)cc(C)c1O [Compound 41]

Response line:
["> 7.30", "> 7.30", "> 7.30", "6.00 to 7.00", "< 6.00", "> 7.30", "> 7.30", "6.00 to 7.00"]

Here are 8 compounds. What values of pKd were reported for them?
1. CC(C)C1CCN(c2ccc(Nc3n[nH]c(NCc4ccc(O)cc4)c3C(N)=O)cc2)CC1 [reference compound]
2. NC(=O)c1c(Nc2ccc(S(N)(=O)=O)cc2)n[nH]c1NCc1ccc(O)cc1 [reference compound]
3. NC(=O)c1c(Nc2ccc(N3CCC(F)CC3)cc2)n[nH]c1NCc1ccc(O)cc1 [reference compound]
4. NC(=O)c1c(Nc2ccc(N3CCCCC3)cc2)n[nH]c1NCc1ccc(O)cc1 [reference compound]
5. NC(=O)c1c(Nc2ccc(-c3cnco3)cc2)n[nH]c1NCc1ccc(O)cc1 [reference compound]
6. NC(=O)c1c(Nc2ccc(N)cc2)n[nH]c1NCc1ccc(O)cc1 [reference compound]
7. NC(=O)c1c(Nc2ccc(-c3cccnc3)cc2)n[nH]c1NCc1ccc(O)cc1 [reference compound]
8. NC(=O)c1c(Nc2ccc(N3CCN(C(=O)N4CCCC4)CC3)cc2)n[nH]c1NCc1ccc(O)cc1 [reference compound]

Response line:
1: 6.00 to 7.00; 2: > 7.30; 3: > 7.30; 4: > 7.30; 5: > 7.30; 6: 7.00 to 7.30; 7: > 7.30; 8: > 7.30

Here are 3 compounds. What values of pKd were reported for them?
1. NC(=O)c1c(Nc2ccc(F)cc2)n[nH]c1NCc1ccc(O)cc1 [reference compound]
2. NC(=O)c1c(Nc2ccc(N3CCOCC3)c(F)c2)n[nH]c1NCc1ccc(O)cc1 [reference compound]
3. CN(C)c1ccc(Nc2n[nH]c(NCc3ccc(O)cc3)c2C(N)=O)cc1 [reference compound]

Response line:
1: > 7.30; 2: > 7.30; 3: > 7.30
